System: recombinant human muscarinic receptor m2 (Homo sapiens, UniProt P08172)
Sequence (P08172 whole entry): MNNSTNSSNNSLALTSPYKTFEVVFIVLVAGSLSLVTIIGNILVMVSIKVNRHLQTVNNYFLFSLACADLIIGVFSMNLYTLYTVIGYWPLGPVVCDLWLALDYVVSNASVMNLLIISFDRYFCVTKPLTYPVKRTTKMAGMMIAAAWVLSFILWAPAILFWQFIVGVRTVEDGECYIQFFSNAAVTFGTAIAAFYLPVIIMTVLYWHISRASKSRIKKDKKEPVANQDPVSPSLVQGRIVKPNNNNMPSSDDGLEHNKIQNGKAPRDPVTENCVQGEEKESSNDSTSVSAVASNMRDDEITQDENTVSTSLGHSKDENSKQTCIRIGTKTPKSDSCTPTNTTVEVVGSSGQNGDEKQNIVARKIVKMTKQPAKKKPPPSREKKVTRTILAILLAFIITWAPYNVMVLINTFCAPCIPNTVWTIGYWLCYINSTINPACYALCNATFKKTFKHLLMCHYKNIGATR
Experiment notes: Radioligand binding studies, [3H]N-methyl scopolamine, m2
Assay setup: CHO cell membranes, [3H]N-methyl scopolamine 0.4 nM; pIC50 converted to pKi by Cheng-Prusoff
Reported metric: Ki (nM)

Solved entries (count: 5):
Molecule: CCCN(C1CCN(C(=O)N2CCN(C)CC2)CC1)C1CCc2ccc(OC)cc2C1 (stereo not shown)
Quantity unit: nM
Test result: 0.575
//
Molecule: CCCN(C1CCN(C(=O)c2ccco2)CC1)C1CCc2ccc(OC)cc2C1 (stereo not shown)
Quantity unit: nM
Test result: 26.3
//
Molecule: CCCN(C1CCN(C(=O)C2CCNCC2)CC1)[C@@H]1CCc2ccc(OC)cc2C1
Quantity unit: nM
Test result: 2.19
//
Molecule: CCCN(C1CCN(C(=O)C2CCNCC2)CC1)C1CCc2cc(OC)c(OC)cc2C1 (stereo not shown)
Quantity unit: nM
Test result: 5.01
//
Molecule: CCCN(C1CCN(C(=O)N(CC)CC)CC1)C1CCc2ccc(OC)cc2C1 (stereo not shown)
Quantity unit: nM
Test result: 3.16

a: CCCN(C1CCN(C(C)=O)CC1)C1CCc2ccc(OC)cc2C1 (stereo not shown)
b: CCCN(C1CCN(C(=O)c2ccccc2C)CC1)C1CCc2ccc(OC)cc2C1 (stereo not shown)
Query :: For the pair a and b , which member has the lower Ki number? Provide the label of your selected option as the answer.
Result :: a

P: CCCN(C1CCN(C(=O)C2CCNCC2)CC1)C1CCc2ccc(Br)cc2C1 (stereo not shown)
Q: CCCN(C1CCN(C(=O)N2CCOCC2)CC1)C1CCc2ccc(OC)cc2C1 (stereo not shown)
Query :: Given P and Q , report the one with the higher recorded Ki. // respond with label for picked entry
Result :: Q
(Q: 2.69 nM, P: 1.82 nM)

----------
System: recombinant human muscarinic receptor m3 (Homo sapiens, UniProt P20309)
Sequence (P20309 whole entry): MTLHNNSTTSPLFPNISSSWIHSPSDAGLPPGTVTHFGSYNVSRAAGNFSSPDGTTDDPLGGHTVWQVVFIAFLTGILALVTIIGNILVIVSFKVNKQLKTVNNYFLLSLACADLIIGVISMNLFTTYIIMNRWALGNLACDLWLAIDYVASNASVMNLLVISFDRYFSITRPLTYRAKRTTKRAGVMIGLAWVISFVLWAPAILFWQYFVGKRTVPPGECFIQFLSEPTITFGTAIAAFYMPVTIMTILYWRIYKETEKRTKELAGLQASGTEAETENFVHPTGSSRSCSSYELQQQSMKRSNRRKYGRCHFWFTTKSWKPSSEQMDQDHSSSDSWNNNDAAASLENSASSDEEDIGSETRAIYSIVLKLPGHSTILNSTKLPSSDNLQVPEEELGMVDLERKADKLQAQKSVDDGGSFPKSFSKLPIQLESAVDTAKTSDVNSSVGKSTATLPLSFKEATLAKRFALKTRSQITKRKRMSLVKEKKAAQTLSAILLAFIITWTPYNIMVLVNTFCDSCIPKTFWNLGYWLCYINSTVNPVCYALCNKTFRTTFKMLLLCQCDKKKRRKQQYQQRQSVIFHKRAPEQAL
Experiment notes: Radioligand binding studies, [3H]N-methyl scopolamine, m3
Assay setup: CHO cell membranes, [3H]N-methyl scopolamine 0.4 nM; pIC50 converted to pKi by Cheng-Prusoff
pKi: −log10 of the molar value.
Reported metric: pKi

Sample records with pKi:
Molecule: CCCN(C1CCN(C(=O)N2CCNCC2)CC1)C1CCc2ccc(OC)cc2C1 (stereo not shown)
System: recombinant human muscarinic receptor m3 (Homo sapiens, UniProt P20309)
pKi: 8.80

Molecule: CCCN(C1CCN(C(=O)c2ccco2)CC1)C1CCc2ccc(OC)cc2C1 (stereo not shown)
System: recombinant human muscarinic receptor m3 (Homo sapiens, UniProt P20309)
pKi: 7.29

Molecule: CCCN(C1CCN(C(=O)N2CCN(C)CC2)CC1)C1CCc2ccc(OC)cc2C1 (stereo not shown)
System: recombinant human muscarinic receptor m3 (Homo sapiens, UniProt P20309)
pKi: 8.56

I: CCCN(C1CCN(C(=O)c2ccccc2C)CC1)C1CCc2ccc(OC)cc2C1 (stereo not shown)
II: CCCN(C1CCN(C(=O)C2CCNCC2)CC1)C1CCc2ccc(Br)cc2C1 (stereo not shown)
III: CCCN(C1CCN(C(=O)N2CCOCC2)CC1)C1CCc2ccc(OC)cc2C1 (stereo not shown)
IV: CCCN(C1CCN(C(C)=O)CC1)C1CCc2ccc(OC)cc2C1 (stereo not shown)
V: CCCN(C1CCN(C(=O)C2CCNCC2)CC1)C1CCc2cc(OC)c(OC)cc2C1 (stereo not shown)
Query :: Would you mind ranking these molecules by ascending pKi? Sort the labels as requested; that list is your answer.
Result :: I, V, IV, III, II
(I: 7.31, V: 7.94, IV: 8.17, III: 8.83, II: 9.05)

I: CCCN(C1CCN(C(=O)N(CC)CC)CC1)C1CCc2ccc(OC)cc2C1 (stereo not shown)
II: CCCN(C1CCN(C(=O)C2CCNCC2)CC1)[C@@H]1CCc2ccc(OC)cc2C1
Query :: Between I and II , whose recorded pKi is greater? The response must carry the label of the picked entry.
Result :: II

Every entry's value here was drawn from patent US6806278B2.
